Measured First screening IR (inhibition rate), listed per entry for reference.
assay-target: human recombinant Yes [a.a. 2–543 (end)] (Homo sapiens, UniProt P07947)
Construct: human recombinant Yes [a.a; 2–543 (end)]; purchased BPS Bioscience 40488
Sequence (P07947 2-543): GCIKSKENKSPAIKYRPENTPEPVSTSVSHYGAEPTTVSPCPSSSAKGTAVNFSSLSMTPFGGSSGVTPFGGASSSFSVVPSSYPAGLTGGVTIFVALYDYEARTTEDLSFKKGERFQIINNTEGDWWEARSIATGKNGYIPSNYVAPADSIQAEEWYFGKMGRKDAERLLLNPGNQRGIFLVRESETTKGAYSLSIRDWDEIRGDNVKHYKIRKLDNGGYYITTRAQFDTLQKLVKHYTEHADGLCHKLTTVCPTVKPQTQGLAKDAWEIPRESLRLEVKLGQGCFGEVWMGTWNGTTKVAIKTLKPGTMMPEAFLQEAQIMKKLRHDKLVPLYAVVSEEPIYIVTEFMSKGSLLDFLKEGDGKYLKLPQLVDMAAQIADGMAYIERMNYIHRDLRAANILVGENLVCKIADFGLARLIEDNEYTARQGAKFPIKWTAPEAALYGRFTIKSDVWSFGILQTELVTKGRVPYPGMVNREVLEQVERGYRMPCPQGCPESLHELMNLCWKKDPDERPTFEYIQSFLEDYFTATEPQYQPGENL
assay-explanation: ADP-Glo kinase assay, inhibition rates of Yes phosphorylation activity (first and second screening)
Assay type: biochemical
experimental-conditions: first screening; mean of n = 4 wells; 10 μmol L−1 compound
value-type: First screening IR (inhibition rate) (%)

CCN(CC)CCC1S(=O)(=O)CC(c2ccccc2)CS1(=O)=O (centres unmarked)	8
Cc1noc(C(C)NC(=O)C2CSCN2C(=O)c2ccccc2)n1 (centres unmarked)	-12
CCC(C)N(CC(=O)Nc1cccc(C)c1C)C(=O)COC(=O)c1cc(C(C)=O)cn1C (centres unmarked)	-9
CN(C)c1ccc(C(CNc2ncccc2C#N)c2c[nH]c3ccccc23)cc1 (centres unmarked)	0
CC(=O)[C@@H]1C[C@H](CC(=O)NCCc2ccn(-c3ccc(F)cc3)n2)C1(C)C	5
Cc1cccc(/C=C/c2cc(C(=O)O)c3ccccc3n2)c1	46
O=C(CN1CCN(S(=O)(=O)c2cccc(Cl)c2Cl)CC1)NC1CCCCCC1	-12
CC1CCN(C(=O)c2nc3ncc(Br)cn3n2)CC(C)C1 (centres unmarked)	1

---

assay-target: human recombinant Yes [a.a. 2–543 (end)] (Homo sapiens)
Construct: human recombinant Yes [a.a; 2–543 (end)]; purchased BPS Bioscience 40488
assay-explanation: ADP-Glo kinase assay, inhibition rates of Yes phosphorylation activity (first and second screening)
Assay type: biochemical
experimental-conditions: first screening; mean of n = 4 wells; 10 μmol L−1 compound
Measured First screening IR (inhibition rate), listed per entry for reference.
value-type: First screening IR (inhibition rate) (%)

Cn1nccc1/C=C1\C(=O)Nc2ccccc21	2
COC(=O)c1cnc(N2CCCCC2)cc1N1CCCCC1	0
O=c1[nH]c2cc(Cl)ccc2c(-c2ccccc2)c1CN1CCCCC1	1
CCN(CC)Cc1ccc(CNC(=O)c2ccccc2SCc2cscn2)cc1	33
CN(CC(=O)NC(=O)Nc1ccccc1F)C1CCCc2ccccc21 (centres unmarked)	-6

---

Measured First screening IR (inhibition rate), listed per entry for reference.
assay-target: human recombinant Yes [a.a. 2–543 (end)] (Homo sapiens)
Construct: human recombinant Yes [a.a; 2–543 (end)]; purchased BPS Bioscience 40488
assay-explanation: ADP-Glo kinase assay, inhibition rates of Yes phosphorylation activity (first and second screening)
Assay type: biochemical
experimental-conditions: first screening; mean of n = 4 wells; 10 μmol L−1 compound
value-type: First screening IR (inhibition rate) (%)

O=C(c1cc(-c2ccccc2)nc2c1cnn2Cc1cccc(F)c1)N1CCC1 [Compound Z117073454]	5
CS1(=O)=NC=C(C(=O)O)C=C1 (centres unmarked) [Compound Z1262519784]	52
O=C(NCCc1nc2ccccc2[nH]1)c1cc(-c2ccccc2)nc2c1cnn2Cc1ccco1 [Compound Z228153102]	7
CC(=O)c1ccc(N2CCN(CC(=O)c3cc(C)[nH]c3C)CC2)c(F)c1 [Compound Z238811284]	1
Nc1nc(NCC(=O)O)nc(NCC2CCCO2)c1[N+](=O)[O-] (centres unmarked) [Compound Z244561600]	9
C=CCN(Cc1nnc(-c2ccc(Cl)cc2)o1)S(=O)(=O)c1ccc(NC(C)=O)cc1 [Compound Z26082391]	3
CCOC(=O)c1c(-c2ccc(F)cc2)csc1NC(=O)CN1CCN(Cc2cc(OC)ccc2OC)CC1 [Compound Z46402002]	5
O=C(CCc1ccc(S(=O)(=O)N2CCCC2)cc1)NCC(c1ccccc1Cl)N1CCCC1 (centres unmarked) [Compound Z166811416]	-3
CC(Sc1nnc2ccccn12)C(=O)Nc1nc(-c2ccc(F)c(F)c2)cs1 (centres unmarked) [Compound Z20241790]	21
Cc1ccc2[nH]c(C)c(CC(=O)Nc3n[nH]c(-c4ccccn4)n3)c2c1 [Compound Z653347886]	-3
CC(O)(CNc1ccnc2c(F)cc(Br)cc12)CN1CCOCC1 (centres unmarked) [Compound Z1601616896]	-21
COc1cc(/C=C(\C#N)C(=O)NC2CCCCC2)ccc1OCC(=O)Nc1ccc(Br)cc1 [Compound Z44319326]	-16
Cc1ccccc1-c1nc(SCc2cn3cc(Cl)ccc3n2)n[nH]1 [Compound Z221422064]	36
Cc1ccccc1-c1cc(C(N)=O)c2cnn(C(C)C)c2n1 [Compound Z229615400]	14
O=C(CCn1[nH]c(=O)ccc1=O)Nc1ccc(-n2cnnn2)cc1 [Compound Z51737757]	14
C(=N/Nc1nc2ccccc2nc1-c1ccccc1)/c1ccc2nccnc2c1 [Compound Z969651240]	11
CN(CCO)c1ccc(S(C)(=O)=O)cc1S(C)(=O)=O [Compound Z199538264]	3

Each recorded value in this set is attributed to paper PMC5607274.
